Test system: Setaria viridis
testProtocol: Post-emergence herbicidal effect
Type: in vivo
appliedConditions: 80 g/ha, post-emergence at one-leaf stage, assessed visually after about 3 weeks; 100% = plants have died, 0% = like control plants
measure: Post-emergence action against SETVI (herbicidal action in per cent) (%)
Provide only the numeric value, understood in %.

Post-emergence action against SETVI (herbicidal action in per cent) reported for this compound C#Cc1cc(Br)c(C2=C([O-])C3(CCCC(OCCC)C3)NC2=O)c(OC)c1.[Na+] (stereo not shown) : 100

Input C#Cc1cc(Br)c(C2=C(OC(=O)OCC)C3(CCCC(OCCC)C3)NC2=O)c(OC)c1 (stereo not shown) . Output Post-emergence action against SETVI (herbicidal action in per cent): 100

Sample CC#Cc1cc(Br)c(C2=C(O)C3(CCCC(OCCOC)C3)NC2=O)c(OCC)c1 (stereo not shown) ; Post-emergence action against SETVI (herbicidal action in per cent) observed: 100

Sure, the documented Post-emergence action against SETVI (herbicidal action in per cent) for CC#Cc1cc(Br)c(C2=C(O)C3(CCCC(OCCC)C3)NC2=O)c(OC)c1 (stereo not shown) is 90

Short answer for CC#Cc1cc(Br)c(C2=C([O-])C3(CCCC(OCCC)C3)NC2=O)c(OC)c1.[Na+] (stereo not shown) : Post-emergence action against SETVI (herbicidal action in per cent) was 90

Entry C#Cc1cc(Br)c(C2=C(OC(=O)C(C)C)C3(CCCC(OCCC)C3)NC2=O)c(OC)c1 (stereo not shown) — recorded Post-emergence action against SETVI (herbicidal action in per cent) = 100

Form field Post-emergence action against SETVI (herbicidal action in per cent), entry C#Cc1cc(Br)c(C2=C(O)C3(CCCC(OCCOC)C3)NC2=O)c(OC)c1 (stereo not shown) : 90

For this compound ( C#Cc1cc(Br)c(C2=C([O-])C3(CCCC(OCCOC)C3)NC2=O)c(OC)c1.[Na+] (stereo not shown) ), measured Post-emergence action against SETVI (herbicidal action in per cent) is 90

For this compound ( CC#Cc1cc(Br)c(C2=C(OC(=O)C(C)C)C3(CCCC(OCCOC)C3)NC2=O)c(OC)c1 (stereo not shown) ), measured Post-emergence action against SETVI (herbicidal action in per cent) is 100

The recorded Post-emergence action against SETVI (herbicidal action in per cent) for CCOC(=O)OC1=C(c2c(Br)cc(C#CBr)cc2OC)C(=O)NC12CCCC(OCCOC)C2 (stereo not shown) is 90

Query C#Cc1cc(Br)c(C2=C(O)C3(CCCC(OCCC)C3)NC2=O)c(OC)c1 (stereo not shown) yields Post-emergence action against SETVI (herbicidal action in per cent) of 100

response.value for CC#Cc1cc(Br)c(C2=C(O)C3(CCCC(OCCOC)C3)NC2=O)c(OC)c1 (stereo not shown) (field: Post-emergence action against SETVI (herbicidal action in per cent)) = 100

In plain terms, COCCOC1CCCC2(C1)NC(=O)C(c1c(Br)cc(C#CBr)cc1OC)=C2O (stereo not shown) has a documented Post-emergence action against SETVI (herbicidal action in per cent) of 100

The compound listed as CC#Cc1cc(Br)c(C2=C([O-])C3(CCCC(OCCOC)C3)NC2=O)c(OCC)c1.[Na+] (stereo not shown) shows Post-emergence action against SETVI (herbicidal action in per cent) equal to 100

get_value(item= C#Cc1cc(Br)c(C2=C(OC(=O)C(C)C)C3(CCCC(OCCOC)C3)NC2=O)c(OC)c1 (stereo not shown) , readout=Post-emergence action against SETVI (herbicidal action in per cent)) returns 90

Measured Post-emergence action against SETVI (herbicidal action in per cent), CC#Cc1cc(Br)c(C2=C(OC(=O)OCC)C3(CCCC(OCCOC)C3)NC2=O)c(OC)c1 (stereo not shown) : 100

----------
Tested on: Alopecurus myosuroides
testProtocol: Post-emergence herbicidal effect
Type: in vivo
appliedConditions: 80 g/ha, post-emergence at one-leaf stage, assessed visually after about 3 weeks; 100% = plants have died, 0% = like control plants
Experimental: Seeds of monocotyledonous and dicotyledonous weed and crop plants are laid out in sandy loam soil in wood-fiber pots, covered with soil and cultivated in a greenhouse under good growth conditions. 2 to 3 weeks after sowing, the test plants are treated at the one-leaf stage. […]
measure: Post-emergence action against ALOMY (herbicidal action in per cent) (%)
Give the number; % is assumed, so skip it.

Notebook: COCCOC1CCCC2(C1)NC(=O)C(c1c(Br)cc(C#CBr)cc1OC)=C2O (centres unmarked) , Post-emergence action against ALOMY (herbicidal action in per cent) read as 90

Post-emergence action against ALOMY (herbicidal action in per cent) for CC#Cc1cc(Br)c(C2=C(O)C3(CCCC(OCCOC)C3)NC2=O)c(OCC)c1 (centres unmarked) is 100

Post-emergence action against ALOMY (herbicidal action in per cent) in this record for C#Cc1cc(Br)c(C2=C(OC(=O)OCC)C3(CCCC(OCCC)C3)NC2=O)c(OC)c1 (centres unmarked) : 80

Reported Post-emergence action against ALOMY (herbicidal action in per cent) of C#Cc1cc(Br)c(C2=C(O)C3(CCCC(OCCOC)C3)NC2=O)c(OC)c1 (centres unmarked) : 90

The molecule listed as CC#Cc1cc(Br)c(C2=C(O)C3(CCCC(OCCOC)C3)NC2=O)c(OC)c1 (centres unmarked) shows Post-emergence action against ALOMY (herbicidal action in per cent) equal to 100

Reported Post-emergence action against ALOMY (herbicidal action in per cent) for C#Cc1cc(Br)c(C2=C(OC(=O)C(C)C)C3(CCCC(OCCC)C3)NC2=O)c(OC)c1 (centres unmarked) was 90

Recorded result, CC#Cc1cc(Br)c(C2=C([O-])C3(CCCC(OCCOC)C3)NC2=O)c(OC)c1.[Na+] (centres unmarked) , Post-emergence action against ALOMY (herbicidal action in per cent): 80

Item: C#Cc1cc(Br)c(C2=C(O)C3(CCCC(OCCC)C3)NC2=O)c(OC)c1 (centres unmarked) | Post-emergence action against ALOMY (herbicidal action in per cent): 90

----------
Test system: Digitaria sanguinalis
testProtocol: Post-emergence herbicidal effect
Format: in vivo
appliedConditions: 80 g/ha, post-emergence at one-leaf stage, assessed visually after about 3 weeks; 100% = plants have died, 0% = like control plants
measure: Post-emergence action against DIGSA (herbicidal action in per cent) (%)
Write down the numeric answer in % and omit the unit.

The compound C#Cc1cc(Br)c(C2=C(O)C3(CCCC(OCCOC)C3)NC2=O)c(OC)c1 (stereo not shown) showed Post-emergence action against DIGSA (herbicidal action in per cent) equal to 80

Measured Post-emergence action against DIGSA (herbicidal action in per cent), C#Cc1cc(Br)c(C2=C([O-])C3(CCCC(OCCC)C3)NC2=O)c(OC)c1.[Na+] (stereo not shown) : 100

GET /value?item= C#Cc1cc(Br)c(C2=C(O)C3(CCCC(OCCC)C3)NC2=O)c(OC)c1 (stereo not shown) &field=Post-emergence action against DIGSA (herbicidal action in per cent) returns 90

Sample CC#Cc1cc(Br)c(C2=C([O-])C3(CCCC(OCCOC)C3)NC2=O)c(OCC)c1.[Na+] (stereo not shown) ; Post-emergence action against DIGSA (herbicidal action in per cent) observed: 100

Sure, the documented Post-emergence action against DIGSA (herbicidal action in per cent) for C#Cc1cc(Br)c(C2=C([O-])C3(CCCC(OCCOC)C3)NC2=O)c(OC)c1.[Na+] (stereo not shown) is 100

Consider C#Cc1cc(Br)c(C2=C(OC(=O)C(C)C)C3(CCCC(OCCOC)C3)NC2=O)c(OC)c1 (stereo not shown) . Its measured Post-emergence action against DIGSA (herbicidal action in per cent) is 90

For reference, reported Post-emergence action against DIGSA (herbicidal action in per cent) for C#Cc1cc(Br)c(C2=C(OC(=O)C(C)C)C3(CCCC(OCCC)C3)NC2=O)c(OC)c1 (stereo not shown) stands at 90

Short answer for CC#Cc1cc(Br)c(C2=C(O)C3(CCCC(OCCOC)C3)NC2=O)c(OCC)c1 (stereo not shown) : Post-emergence action against DIGSA (herbicidal action in per cent) was 100

Post-emergence action against DIGSA (herbicidal action in per cent) in this record for C#Cc1cc(Br)c(C2=C(OC(=O)OCC)C3(CCCC(OCCOC)C3)NC2=O)c(OC)c1 (stereo not shown) : 90

Consider C#Cc1cc(Br)c(C2=C(OC(=O)OCC)C3(CCCC(OCCC)C3)NC2=O)c(OC)c1 (stereo not shown) . Its measured Post-emergence action against DIGSA (herbicidal action in per cent) is 90

CCOC(=O)OC1=C(c2c(Br)cc(C#CBr)cc2OC)C(=O)NC12CCCC(OCCOC)C2 (stereo not shown) yielded Post-emergence action against DIGSA (herbicidal action in per cent) of 80

Measured Post-emergence action against DIGSA (herbicidal action in per cent), CC#Cc1cc(Br)c(C2=C(OC(=O)OCC)C3(CCCC(OCCOC)C3)NC2=O)c(OCC)c1 (stereo not shown) : 100

Briefly, Post-emergence action against DIGSA (herbicidal action in per cent) measured for COCCOC1CCCC2(C1)NC(=O)C(c1c(Br)cc(C#CBr)cc1OC)=C2O (stereo not shown) : 80
